Origin of measurements: patent US20240392013A1

Assay system: T1, hIL1RAP (Homo sapiens, UniProt Q9NPH3)
T1 sequence (Q9NPH3 21-367 limits assumed): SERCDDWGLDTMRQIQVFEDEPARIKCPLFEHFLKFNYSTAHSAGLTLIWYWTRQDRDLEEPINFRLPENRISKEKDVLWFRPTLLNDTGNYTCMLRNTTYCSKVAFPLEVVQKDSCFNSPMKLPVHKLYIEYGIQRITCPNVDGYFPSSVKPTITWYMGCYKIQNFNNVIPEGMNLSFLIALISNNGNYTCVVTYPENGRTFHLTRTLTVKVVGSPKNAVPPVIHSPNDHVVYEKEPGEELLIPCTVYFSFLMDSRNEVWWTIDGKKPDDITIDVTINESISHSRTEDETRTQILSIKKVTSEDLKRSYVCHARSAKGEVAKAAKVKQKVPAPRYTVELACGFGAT
Method: Kinetics of IL1RAP mAbs by Octet, human IL1RAP
Format: binding
Parameters: extracellular domain His-tagged, Cat #10121-H08H; His; purchased Sino Biological lot MB08MA1301 (catalogue number not given)
Measured attribute: hIL1RAP kon(1/Ms) (M⁻¹ s⁻¹)
Numbers only; they are read as M⁻¹ s⁻¹.

Problem: Requested read-out: hIL1RAP kon(1/Ms). Entry: 74804_05B24A: anti-IL1RAP mAb; VH SEQ ID NO:10, VL SEQ ID NO:26, κ light chain (antibody, V domains shown, 74804_05B24A VH; 74804_05B24A VL) VH: EVQLVDSGGGLVKPGGSLRLSCAATGFTFSNVWMSWVRQGSGKGLEWVGRIKSKTDGGTIDYAAPVKGRFTISRDDPKNTLYLQMNSLKTEDTAVYYCTTGELLGFDYWGQGTLVTVSS VL: DIVMTQSPLSLPVTPGEPASISCRSGQSLLHNNGFNCLAWYLQKPGQSPQLLIYLGSNRASGVPDRFSGSGSGTDFTLKISRVEAEDVGVFYCMQTLQTPITFGQGTRLEIK
Solution: 294400

From here, focus on the item given below.
Problem: Requested read-out: hIL1RAP kon(1/Ms). Entry: 74804_27I24A: anti-IL1RAP mAb; VH SEQ ID NO:13, VL SEQ ID NO:29, λ light chain (antibody, V domains shown, 74804_27I24A VH; 74804_27I24A VL) VH: EVQLVESGGGLVKPGGSLRLSCAASGFTFITYSMNWVRQAPGKGLEWVSSISSISSYIYYADSVKGRFTISRDNAKNSLYLQMDSLRAEDSAVYYCAREGIVGPTGYFDSWGQGTLVTVSS VL: QSVLTQPPSVSAAPGQKVTISCSGSSSNIGNHYVSWYQQLPGTAPKLLIYDNNKRPSGIPDRFSGSKSGTSATLGITGLQTGDEADYYCGTWDSRLSAYWVFGGGTKLTVL
Solution: 350400
